test: Cmax in rat at 10 mg/kg, po; type: ADME, organism-based; set-up: dose 10 mg/kg, route oral; conditions: in vivo
Entries and their Cmax values follow.
The response must be a number in ng/mL with no trailing unit.

Look up Cmax for this molecule: Cc1nnc(-c2ccc(C)c(-c3ccc4c(c3)NC(=O)C43CCN(S(C)(=O)=O)CC3)c2)[nH]1
632

###

test: Metabolic stability in human liver microsomes assessed as compound turnover at 5 uM after 30 mins in presence of NADPH; assay type: ADME, Microsome; conditions: read-out: Drug metabolism
For each record, check the reported metabolised at 0.5 h, 5 µM: if it is below 10% write MET, else write NOT MET.

Consider the following illustrative entries.
[[record]]
smiles_structure = "Cc1nnc(-c2ccc(C)c(-c3ccc4c(c3)NC(=O)C43CCCC3)c2)[nH]1"
category_label = "NOT MET"

[[record]]
smiles_structure = "Cc1ccc2c(NC3CC3)noc2c1-c1ccc2c(c1)NC(=O)C21CCOCC1"
category_label = "NOT MET"

[[record]]
smiles_structure = "Cc1nnc(-c2ccc(C)c(-c3ccc4c(c3)NC(=O)C43CCOCC3)c2)[nH]1"
category_label = "MET"

[[record]]
smiles_structure = "Cc1ccc2c(N)noc2c1-c1ccc2c(c1)NC(=O)C21CCOCC1"
category_label = "MET"

[[record]]
smiles_structure = "Cc1nnc(-c2ccc(C)c(-c3ccc4c(c3)NC(=O)C43CCN(S(C)(=O)=O)CC3)c2)[nH]1"
category_label = "MET"


A record lists Cc1ccc2c(NC3CC3)noc2c1-c1ccc2c(c1)NC(=O)C21CCC(F)(F)CC1 . Is its metabolised at 0.5 h, 5 µM below 10%?
NOT MET

A record lists Cc1nnc(-c2ccc(C)c(-c3ccc4c(c3)NC(=O)C43CCC(F)(F)CC3)c2)[nH]1 . Is its metabolised at 0.5 h, 5 µM below 10%?
MET
